# Tested on: Plasmodium berghei
# experimentDescription: Luciferase/luciferin-expressing antifolate-resistant parasites were used to infect a culture of HepG2 cells that were pre-incubated with compounds. Infected hepatocytes emit light due to the luciferase reaction. Assay results are presented as the percent inhibition of light emission compared to control. […]
# Assay type: functional
# settings: sporozoite, read-out: LUCIFERASE INFECTION ASSAY - IC90

compound	system	IC90
COc1ccc(-c2cnc3ccc(-c4cccc(Cl)c4)nn23)cc1OC	Plasmodium berghei	5.25 µM
Oc1ccc(/C=N/n2c(-c3ccco3)cs/c2=N\c2ccc(F)cc2F)c(O)c1	Plasmodium berghei	> 10 µM
Nc1ncc(-c2ccc(F)cc2F)cc1-c1cccc(C(F)(F)F)c1	Plasmodium berghei	> 9.42 µM
CC(Sc1nc(N)c2ccsc2n1)c1nc(-c2ccccc2)no1 (centres undefined)	Plasmodium berghei	> 10 µM
O=S(=O)(Oc1cccc(C(F)(F)F)c1)c1cc(S(=O)(=O)c2ccccc2)cs1	Plasmodium berghei	> 7.36 µM
CNc1snc(C)c1C(=O)NCc1csc(-c2ccccc2)n1	Plasmodium berghei	4.69 µM
Cc1noc(C)c1NC(=O)Nc1cc(C(F)(F)F)cc(C(F)(F)F)c1	Plasmodium berghei	> 8.99 µM
CCOc1ccccc1/C=C/C(=O)OCC(=O)Nc1ccccc1-c1ccccc1	Plasmodium berghei	3.67 µM
Cn1c(C(=O)N2CCN(C(c3ccccc3)c3ccccc3)CC2)cc2c(=O)n3ccccc3nc21	Plasmodium berghei	> 10 µM
O=C(CSc1ncnc2ccccc12)NN1C(=O)NC(c2ccccc2)(c2ccccc2)C1=O	Plasmodium berghei	> 10 µM
COc1ccc(Sc2nc(N(C)C)ncc2OC)cc1	Plasmodium berghei	> 11.3 µM
CCOc1ccc(CN(C)CC(=O)NCCc2ccc(S(N)(=O)=O)cc2)cc1	Plasmodium berghei	> 10 µM
COCCNc1nc(-c2c(-c3ccccc3)[nH]c3ccccc23)cs1	Plasmodium berghei	> 10 µM
CCc1ccc(NC(=O)C[n+]2c3n(c4c(F)c(F)ccc42)CCCCC3)cc1	Plasmodium berghei	9.39 µM
COc1ccc(-c2csc(CC(=O)NCc3ccccc3)n2)c(OC)c1	Plasmodium berghei	> 10 µM
COc1ccccc1NC(=O)c1cc2ccccc2c(CN2CCN(c3ccccc3)CC2)c1O	Plasmodium berghei	> 10 µM
O=C(c1cnc2cc3c(cc2c1)OCCCO3)c1ccccc1O	Plasmodium berghei	5.25 µM
COc1cc(OC)c(C2=CCN(c3cc(=O)n4ccccc4n3)CC2)c(OC)c1	Plasmodium berghei	> 10 µM
O=C(NCC(=O)N1CCCC1)c1cccc2c3c([nH]c12)CCCCC3	Plasmodium berghei	3.72 µM
Cc1cccc(-n2cc(-c3ccccc3)c3c(N4CCN(C)CC4)ncnc32)c1	Plasmodium berghei	> 10 µM
Cc1cn2c(/C=C/c3nc4cc(Cl)ccc4o3)c(C)nc2s1	Plasmodium berghei	> 10 µM
COc1cc2c(cc1OC)C(c1cccs1)N(C(=O)Nc1cc(C)on1)CC2 (centres undefined)	Plasmodium berghei	2.7 µM
CC(Sc1nnc(-c2ccccc2)c(-c2ccccc2)n1)C(=O)N1CCCC1 (centres undefined)	Plasmodium berghei	1.49 µM
COc1ccccc1-n1c(SCC(=O)c2c[nH]c3ccccc23)nnc1-c1cccs1	Plasmodium berghei	0.134 µM
Cc1[nH]c2ccc(C(=O)Nc3nc(CN4CCCC(C)C4)cs3)cc2c1C (centres undefined)	Plasmodium berghei	> 10 µM
Cc1oc2[nH]cnc(=O)c2c1C(=O)Nc1ccccc1Cc1ccccc1	Plasmodium berghei	> 10 µM
CC(C)c1ccc(C(=O)CSc2nc(N)cc(N)n2)c(C(C)C)c1	Plasmodium berghei	> 10 µM
Cc1cc(C(=O)COC(=O)c2[nH]nc3ccccc23)c(C)n1CC1CCCO1 (centres undefined)	Plasmodium berghei	0.491 µM
CC1CCN(C(CNC(=O)N2CCc3sccc3C2)c2cccs2)CC1 (centres undefined)	Plasmodium berghei	9.12 µM
CC(Sc1nc(=O)c2c3c(sc2[nH]1)CCCC3)C(=O)Nc1ccc2ccccc2c1 (centres undefined)	Plasmodium berghei	> 10 µM
COc1cc(-c2ccnc3n[nH]c(-c4ccccc4)c23)cc(OC)c1OC	Plasmodium berghei	> 10 µM
O=c1c(Br)c(Br)cnn1-c1ccccc1	Plasmodium berghei	> 10 µM
Cc1cccc(CNc2nc3cnc(Nc4cccc(O)c4)cc3n2C)c1	Plasmodium berghei	> 10 µM
CC1(c2cc(F)ccc2F)NC(=O)N(CC(=O)c2cn(CCC#N)c3ccccc23)C1=O (centres undefined)	Plasmodium berghei	> 10 µM
CC(C)(C)c1csc(Cc2ccc(-c3csnn3)cc2)n1	Plasmodium berghei	8.68 µM
O=C(Nc1cc(Cl)cc(Cl)c1)c1cc(Br)ccc1O	Plasmodium berghei	1.35 µM
Cc1nn(Cc2ccccc2)c2sc(C(=O)Nc3nc4ccccc4[nH]3)cc12	Plasmodium berghei	0.562 µM
c1csc(-c2cnc3ccc(-c4ccc5c(c4)OCO5)nn23)c1	Plasmodium berghei	> 10 µM
COc1cc(-c2cc(-c3ccccc3F)cnc2N)ccc1O	Plasmodium berghei	4.23 µM
CSc1cccc(N2C(=O)C=C(C)C2=O)c1	Plasmodium berghei	> 14.1 µM
COc1cc(OC)cc(-c2cn3c(-c4ccc(CO)cc4)cnc3cn2)c1	Plasmodium berghei	8.34 µM
OCCNCc1cc(Cl)ccc1OCc1ccc(Cl)cc1Cl	Plasmodium berghei	> 8.31 µM
CN(c1ccccc1)S(=O)(=O)c1ccc(C(=O)Nc2nn3cc(-c4ccccc4)nc3s2)cc1	Plasmodium berghei	> 10 µM
C=CCNS(=O)(=O)c1ccc(C(=O)NCc2ccccc2OC(F)F)cc1	Plasmodium berghei	> 10 µM
